LD50 values for the compounds below.
# experiment: in vivo
# runConditions: mouse, iv
# Method: A test compound was dissolved in 5% glucose solution, and the test compound solution (0.2 ml/10 g of body weight) was administered intravenously to Male ddY strain mice (body weight: 25-28 g). The LD50 of the test compound was estimated by the Up and Down method.
Where a name gives a salt, the structure may show the parent alone.

# compound, LD50 [mg/kg]
measured = [
    ("COc1ccc(C[C@@H](C)NC[C@H](O)c2ccc(O)c3[nH]c(=O)ccc23)cc1 (relative stereo) [Comp. No. 2, hydrochloride]", 91.3),
    ("COc1ccc(C[C@@H](C)NC[C@H](O)c2ccc(O)c3[nH]c(=O)ccc23)cc1.Cl [Comp. No. 1]", 84.6),
    ("CCC(NC(C)C)C(O)c1ccc(O)c2[nH]c(=O)ccc12 (stereo not drawn) [Procaterol, hydrochloride hemihydrate, reference compound]", 70.3),
]

* * *

# experiment: in vivo
# runConditions: mouse, iv
Where a name gives a salt, the structure may show the parent alone.

# molecule, selectivity ratio
records = [
    ("CCC(NC(C)C)C(O)c1ccc(O)c2[nH]c(=O)ccc12 (stereo not shown) [Procaterol, hydrochloride hemihydrate, reference compound]", 110000),
]
